Reported growth inhibition values for a set of molecules
# assay name: NCI Yeast Anticancer Drug Screen. Data for the cln2 rad14 strain (AID 165);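 also: 0% = growth equal to vehicle treated cultures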
# condition: S. cerevisiae cln2 rad14 strain, at 50.0 µM (retest, dose inferred, filed as 5.0), hits give high values
This is part of a sample that, as a whole, favours compounds with a hit. Of some 79,000 tested, about 15% had one in any assay.
Express your answer in %, writing the number without its unit.

Below, each entry is followed by its recorded growth inhibition result.
molecule=COc1ccc(Br)cc1/C=C/[N+](=O)[O-] experimental_value=99
molecule="CCCCCCCCCCCCCCCCP(=O)(O)OP(=O)(O)OCC1OC(n2ccc(N)nc2=O)C(O)C1O (stereo unspecified)" experimental_value=6
molecule=CCCC[CH2][Sn]([CH2]CCCC)[CH2]CCCC.CCCC[CH2][Sn]([CH2]CCCC)[CH2]CCCC experimental_value=99

input: Please give the documented growth inhibition of C/C(=N\O)C(CN(C)C)C(c1ccccc1)c1c(O)c2ccccc2oc1=O (stereo unspecified)
output: 4

input: Identify the reported growth inhibition for the following entry. Clc1ccc(CCN2CCOCC2)c(Cl)c1
output: 30

input: Indicate its recorded growth inhibition; the molecule in question is CNC1=C(C)C(=O)C2=C(C1=O)C(COC(N)=O)C1(O)C3C(CN21)N3C (stereo unspecified)
output: 84

###

# assay name: NCI Yeast Anticancer Drug Screen. Data for the sgs1 strain (AID 173);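 also: 0% = growth of vehicle-only control cultures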
# condition: S. cerevisiae sgs1 mutant, at 100.0 µM
Compounds without any hit were thinned out: in the full panel of roughly 79,000, 15% have a hit. Active and inactive are the calls of the source. Rule as the data show it: active = growth inhibition above about 70%; inactive = the rest.
Outcome (select one): active, inactive

compound=Oc1c(Br)cc(Br)cc1Br classification=active
compound=CS(=O)(=O)OCCN(CCOS(C)(=O)=O)c1ccc(C=O)cc1 classification=active
compound="CC1CC(Br)C(=O)O1 (stereo not given)" classification=active
compound=CNCC(O)c1ccc(O)c(O)c1.[Pt].c1ccc([PH+](c2ccccc2)c2ccccc2)cc1.c1ccc([PH+](c2ccccc2)c2ccccc2)cc1 classification=active

Next up:
input: Give the logged outcome of this assay for the following compound: O=S(=O)(O)c1ccc(Cl)cc1.[Cd]
output: inactive

###

# assay name: NCI Yeast Anticancer Drug Screen. Data for the sgs1 mgt1 strain (AID 161);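 also: 0% = growth of cultures given vehicle only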
# condition: S. cerevisiae sgs1 mgt1 strain, at 5.0 µM (retest, dose inferred, filed as 0.5)
Compounds without any hit were thinned out: in the full panel of roughly 79,000, 15% have a hit. Calls of active or inactive are those of the source. No stated cut-off is given here; in the data, active means growth inhibition above about 70%; inactive means the rest.
Reply using exactly one outcome from 1 for active, -1 for inactive

input: Could you please tell me the result logged for CCN(CCCl)CCCCNc1c2ccccc2nc2ccc(OC)cc12 in this assay?
output: -1

input: Query: recorded result category for Ic1cccc2c1[se]c1ccccc12 in this test
output: -1

input: Outcome logged for Nc1nc(CCl)cs1 in this assay:
output: -1

input: Test call, this compound: O=C(O)CCCc1cc(I)c(N(CCCl)CCCl)c(I)c1
output: -1

###

# assay name: NCI Yeast Anticancer Drug Screen. Data for the sgs1 mgt1 strain (AID 161);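 also: 0% = growth of cultures given vehicle only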
# condition: S. cerevisiae sgs1 mgt1 strain, at 50.0 µM, hits give high values
The panel holds about 79,000 compounds, 15% with a hit somewhere; the sample as a whole holds those more often.
parameter: growth inhibition (%)
Give just the number in %; leave the unit off.

Solved entries (count: 3):
compound="CC1CCOC(=O)/C=C/C=C/C(=O)OC2CC3OC4C5OC5(C)C(O)CC4(COC(=O)C1O)C2(C)C31CO1 (stereo not given)" parameter="growth inhibition" experimental_value=91.5
compound=CCC[CH2][Sn]1([CH2]CCC)[O]C(=O)c2cc(C)ccc2[O]1 parameter="growth inhibition" experimental_value=91.5
compound=N#Cc1ccccc1C(Cl)(Cl)Cl parameter="growth inhibition" experimental_value=-7.1

input: Give me measured growth inhibition, please, for this compound: [Cl][Hg][Cl]
output: 94

input: Identify the reported growth inhibition for the following entry. CC(=O)[O-].CC(=O)[O-].O=C(N/N=C/c1cc(Cl)cc(Cl)c1[OH2+])c1ccncc1.[Mn+2]
output: 98

input: Read off the recorded growth inhibition for CCC[CH2][Sn]1([CH2]CCC)[O]CC(CN2CCCC2)[O]1 (stereo not given)
output: 84.2

input: Read the entry Nc1ccc(Cc2ccc(N)c(Cl)c2)cc1Cl and write its reported growth inhibition.
output: 95.2

input: Write down growth inhibition measured for item N#Cc1cc(N(CCCl)CCCl)c([N+](=O)[O-])cc1[N+](=O)[O-]
output: 90.3

input: Complete the entry with growth inhibition for O=C(COc1ccc(Cl)c(Cl)c1)N(Cc1ccccc1)Cc1ccc[n+](Cc2ccc(S(=O)(=O)F)cc2)c1
output: 53.6

input: # return recorded growth inhibition for entry CSc1ccc(NC(=O)C2c3[nH]c4ccccc4c3C3CCC(C(C)(C)C)CC3C2C(=O)O)cc1 (stereo not given)
output: 30.8

###

# assay name: NCI Yeast Anticancer Drug Screen. Data for the bub3 strain (AID 167)
# condition: S. cerevisiae bub3 mutant strain, at 5.0 µM (retest, dose inferred, filed as 0.5), hits give high values
# Description: Growth inhibition of yeast strains with defined genetic alterations is measured as a screen for potential anti-cancer activity. Selected strains with alterations in DNA damage repair or cell cycle control were exposed to compounds and growth inhibition was measured relative to vehicle treated controls. The strain used in this assay is bub3
This is part of a sample that, as a whole, favours compounds with a hit. Of some 79,000 tested, about 15% had one in any assay.
parameter: growth inhibition (%)
Dear colleague, please return just the value in %, with no unit written.

Solved entries:
molecule=COc1cc2ccccc2c2cc([N+](=O)[O-])oc12 parameter="growth inhibition" experimental_value=2
molecule=Cc1nc2c(Br)cc(Br)cc2c(=O)n1-c1ccccc1N parameter="growth inhibition" experimental_value=3
molecule=O=C(O)CCCC1CCCCC1 parameter="growth inhibition" experimental_value=-1
molecule=O=C(O)CN(CCN(CC(=O)O)CC(=O)O)CC(=O)O parameter="growth inhibition" experimental_value=10
molecule="COc1cccc2c1C(=O)c1c(O)c3c(c(O)c1C2=O)C[C@@](O)(C(C)=O)C[C@@H]3OC1CC(N)C(OC2CC(O)C(O)C(C)O2)C(C)O1 (some centres undefined)" parameter="growth inhibition" experimental_value=4

input: Given the molecule CCC[CH2][Sn]1([CH2]CCC)[O]C(=O)c2cccc(C)c2[O]1 , write its reported growth inhibition.
output: 88

input: Please look at this molecule and report its growth inhibition: COC(=O)C(F)C(Br)C(=O)OC (centres undefined)
output: 11

###

The following compounds are shown together with reported growth inhibition values.
# assay name: NCI Yeast Anticancer Drug Screen. Data for the mlh1 strain (AID 171);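 also: 0% = growth of vehicle-treated control cultures of the same strain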
# condition: S. cerevisiae mlh1 strain growth inhibition; at 100.0 µM; hits give high values
Compounds without any hit were thinned out: in the full panel of roughly 79,000, 15% have a hit.
Enter your answer as a number in %; do not include the unit.

Here is how some compounds turned out for growth inhibition.
compound=O=C1NC(=S)NC(=O)C1=Cc1ccc([N+](=O)[O-])o1 parameter="growth inhibition" experimental_value=81
compound="C/C(=N\\NC(N)=O)C(CN1CCOCC1)C(c1ccccc1)c1c(O)c2ccccc2oc1=O (stereo not given)" parameter="growth inhibition" experimental_value=1
compound=O=C1C=CC(=O)C1(Br)Br parameter="growth inhibition" experimental_value=99
compound="CCOC(=O)C1C2c3ccccc3C(c3ccccc32)C1C(=O)OCC (stereo not given)" parameter="growth inhibition" experimental_value=86

Kindly consider the entry below.
input: Identify the reported growth inhibition for the following entry. CN(CCc1ccc(Br)cc1)CCN1CCCCC1
output: 99

###

# assay name: NCI Yeast Anticancer Drug Screen. Data for the wt2 strain (AID 169);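 also: 0% = growth of vehicle-treated yeast cultures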
# condition: S. cerevisiae wt2 strain growth inhibition; at 100.0 µM
About 79,000 compounds went through this panel and 15% of them were active in at least one assay; those are over-represented in the sample as a whole. Active and inactive are the calls of the source. Cut-off read from the data, not from the text of the source: active = growth inhibition above about 70%; inactive = the rest.
Mark one answer only. Choices: class 1 = active, class 0 = inactive

input: What is the recorded call for this compound in the test? COc1cccc2c1C(=O)c1c(O)c3c(c(O)c1C2=O)C[C@@](O)(C(C)=O)C[C@@H]3OC1CC(N)C(OC2CC(O)C(O)C(C)O2)C(C)O1 (stereo not given in full)
output: class 0

input: Any idea what this test logged for CC1=C2C(=C[C@@](C)(CO)[C@@H]2O)C(=O)[C@](C)(O)C12CC2 ?
output: class 0

input: What call does the record list for COC(COC(=O)N1CCN(C=O)CC1)C1=C(N2CC2)C(=O)C(C)=C(N2CC2)C1=O (stereo not given) ?
output: class 0

input: Test call for this compound, please: COc1ccc(OC)c(/C=C/[N+](=O)[O-])c1
output: class 1

input: Recorded call for O=C(O)CCCc1cc(I)c(N(CCCl)CCCl)c(I)c1 ?
output: class 1

###

# assay name: NCI Yeast Anticancer Drug Screen. Data for the mec2-1 strain (AID 157)
# condition: S. cerevisiae mec2-1 strain, at 33.0 µM, hits give high values
The panel holds about 79,000 compounds, 15% with a hit somewhere; the sample as a whole holds those more often.
Overview of reported growth inhibition across a group of compounds:
Numbers only here, please. The scale is %.

input: Give me measured growth inhibition, please, for this compound: O=[N+]([O-])c1ccc(C=Cc2ccccc2)cc1.[C-]#[O+].[C-]#[O+].[C-]#[O+].[Cr]
output: 71

input: Specify growth inhibition for O=C(O)CCCOc1cc(Cl)c(Cl)cc1Cl and stop.
output: 34

input: Specify measured growth inhibition for S=C1NC2(CCCCC2)NC12CCCCC2 .
output: -1
